Molecular target: Endonuclease III-like protein 1 (Homo sapiens) (UniProt P78549);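 note: enzyme assay tracking NTHL1 cutting and release of a quenched double-stranded DNA oligo substrate, read as fluorescence at 594 nm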
Sequence (whole entry): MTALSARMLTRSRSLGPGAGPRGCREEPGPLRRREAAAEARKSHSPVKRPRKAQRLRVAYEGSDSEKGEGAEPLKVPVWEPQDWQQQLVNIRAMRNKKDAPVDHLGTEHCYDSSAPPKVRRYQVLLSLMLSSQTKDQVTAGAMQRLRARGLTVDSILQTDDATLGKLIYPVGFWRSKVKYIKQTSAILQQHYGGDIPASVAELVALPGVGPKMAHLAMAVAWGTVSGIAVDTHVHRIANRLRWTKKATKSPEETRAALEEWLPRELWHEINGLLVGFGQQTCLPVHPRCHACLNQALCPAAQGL
Conditions: Compound Concentration 10.0 uM, Hit No
Description: Inhibition of NTHL1 by quantifying inhibition of NTHL1-mediated cleavage and dissociation of quenched duplex DNA oligonucleotides, measured as fluorescence at 594 nm.
What inhibition was measured for each of the following?
State just the number; it will be interpreted in %.

// query What inhibition value was documented for this compound, "COc1cc(N(C)c2ccnc3ccc(C(F)(F)F)cc23)cc(OC)c1OC" ?
// result 2.18

// query What inhibition value was documented for this compound, "CC[C@H](C)C(=O)O[C@H]1C[C@@H](C)C=C2C=C[C@H](C)[C@H](CC[C@@H]3C[C@@H](O)CC(=O)O3)[C@H]21" ?
// result 5.94

// query What inhibition value was documented for this compound, "COc1cc(Br)c(S(=O)(=O)Nc2ccc(C(F)(F)F)c(O[C@@H]3CCN(C)C3)c2)cc1OC" ?
// result 13.8

// query What inhibition value was documented for this compound, "CN(C)c1ncnc(-c2ccc3nc(Nc4cc(CN5CCN(C(=O)CC(F)(F)F)CC5)ccn4)[nH]c3c2)c1Cl" ?
// result -0.841

// query What inhibition value was documented for this compound, "C[C@H](c1ccnc(Nc2nc3ccc(-c4cc(N(C)C)ncn4)cc3[nH]2)c1)N1CCN(C(=O)CC(F)(F)F)CC1" ?
// result -3.92

// query What inhibition value was documented for this compound, "C[C@H](c1ccc(F)cc1)N(Cc1ccc(Cl)c(C(=O)O)c1)C(=O)c1cnc2ccccc2c1" ?
// result -7.86

// query What inhibition value was documented for this compound, "C[C@@H](Cn1c(=O)[nH]/c(=N\c2ccc(Oc3ccccn3)cc2)n(Cc2ccc(Cl)cc2)c1=O)C(=O)O" ?
// result 24.5

// query What inhibition value was documented for this compound, "CCC(=N\O)/C(C)=C/c1ccc(F)c(C)c1" ?
// result -5.23

// query What inhibition value was documented for this compound, "N#Cc1ccc(O[C@@H]2c3ccccc3C[C@H]2N2CCC[C@@H](N)C2)c(Cl)c1" ?
// result 3.87

// query What inhibition value was documented for this compound, "CN(CCN1CCC(OC(=O)Nc2ccccc2-c2ccccc2)CC1)C(=O)c1ccc(CN2CCC(C(N)=O)CC2)cc1" ?
// result 15.8

// query What inhibition value was documented for this compound, "O=C1CCc2cc(Nc3cc(OC4CCOCC4)c([N+](=O)[O-])cc3Cl)ccc2N1" ?
// result 5.94

// query What inhibition value was documented for this compound, "c1cnc2cc3c(cc2n1)[C@@H]1CNC[C@H]3C1" ?
// result 12.9

// query What inhibition value was documented for this compound, "CC(C)c1onc(-c2c(Cl)cccc2Cl)c1COc1ccc(/C=C/c2cccc(C(=O)O)c2)c(Cl)c1" ?
// result 12.5

// query What inhibition value was documented for this compound, "CO[C@H]1CC=C2CCN3CCC4=C(CC(=O)OC4)[C@]23C1" ?
// result -0.258

// query What inhibition value was documented for this compound, "CNC[C@H](O)c1cccc(O)c1" ?
// result -9.8

// query What inhibition value was documented for this compound, "CCCCC(=O)N(Cc1ccc(-c2ccccc2-c2nnn[nH]2)cc1)[C@H](C(=O)O)C(C)C" ?
// result 1.92

// query What inhibition value was documented for this compound, "Cc1cc(OC2CCS(=O)(=O)CC2)cc(C)c1-c1cccc(COc2ccc(C(=O)O)c(F)c2)c1" ?
// result -5.23

// query What inhibition value was documented for this compound, "COc1cc(OC)cc(C(=O)NNC(=O)Nc2cccc3ccccc23)c1" ?
// result 2.66

// query What inhibition value was documented for this compound, "O=C(N[C@H](Cc1ccc(Cl)cc1)C(=O)N1CCC(Cn2cncn2)(C2CCCCC2)CC1)[C@H]1Cc2ccccc2CN1" ?
// result -6.04

----------
What inhibition was measured for each of the following?
Target: Endonuclease 8-like 2 (Homo sapiens) (UniProt Q969S2);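 note: fluorescence at 594 nm reports NEIL2 cutting and release of a quenched double-stranded DNA oligo substrate, reduced signal read as inhibition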
Sequence (Q969S2 whole entry): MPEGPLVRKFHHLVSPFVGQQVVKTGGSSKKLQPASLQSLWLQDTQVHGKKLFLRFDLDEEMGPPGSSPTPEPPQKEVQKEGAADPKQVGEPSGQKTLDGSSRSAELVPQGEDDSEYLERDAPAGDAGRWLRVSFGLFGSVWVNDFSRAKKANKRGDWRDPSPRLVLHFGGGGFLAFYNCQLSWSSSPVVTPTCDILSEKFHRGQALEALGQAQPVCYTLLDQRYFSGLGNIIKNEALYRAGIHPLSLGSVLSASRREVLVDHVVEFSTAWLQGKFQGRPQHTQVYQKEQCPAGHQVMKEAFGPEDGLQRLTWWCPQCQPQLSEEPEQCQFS
Conditions: Compound Concentration 1.0 uM, Hit No
Description: Inhibition of NEIL2 by quantifying inhibition of NEIL2-mediated cleavage and dissociation of quenched duplex DNA oligonucleotides, measured as fluorescence at 594 nm.
State just the number; it will be interpreted in %.

// query What inhibition value was documented for this compound, "CS(=O)(=O)NCC[C@H](NC(=O)c1cncc2c1cnn2-c1ccc(F)cc1)c1ccnc(S(C)(=O)=O)c1" ?
// result 0.0213

// query What inhibition value was documented for this compound, "Nc1ncc2c(n1)-c1c([nH]c3ccc(C4CC4)cc13)CCCC2" ?
// result 0.505

// query What inhibition value was documented for this compound, "CCS(=O)(=O)c1cc2cc(C[C@@](O)(CC(C)(C)c3ccc(F)cc3C(N)=O)C(F)(F)F)[nH]c2cn1" ?
// result -6.61

// query What inhibition value was documented for this compound, "CN(C)CC#Cc1ccc2[nH]c3c(c2c1)-c1nc(N)ncc1CCC3" ?
// result 4.81

// query What inhibition value was documented for this compound, "N#Cc1cnc(Nc2cc(NC[C@H]3CNCCO3)c(C(F)(F)F)cn2)cn1" ?
// result -5.15

// query What inhibition value was documented for this compound, "Cc1ccc(-c2cnc([C@@]3(O)CC[C@H](C(=O)O)C(C)(C)C3)s2)cc1Nc1cccc(C(F)(F)F)n1" ?
// result 1.58

// query What inhibition value was documented for this compound, "Cn1cc(C2=C(c3cn(C4CCN(Cc5ccccn5)CC4)c4ccccc34)C(=O)NC2=O)c2ccccc21" ?
// result -6.23

// query What inhibition value was documented for this compound, "CN1C(=O)[C@@H](N2CCc3c(nn(Cc4ccccc4)c3Br)C2=O)COc2ccccc21" ?
// result -4.38

----------
Target: G/T mismatch-specific thymine DNA glycosylase (Homo sapiens) (UniProt Q13569);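 note: human TDG cleavage of quenched duplex DNA oligonucleotides coupled to APE1, strand release read as fluorescence at 594 nm, inhibition of TDG activity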
Sequence (Q13569 whole entry): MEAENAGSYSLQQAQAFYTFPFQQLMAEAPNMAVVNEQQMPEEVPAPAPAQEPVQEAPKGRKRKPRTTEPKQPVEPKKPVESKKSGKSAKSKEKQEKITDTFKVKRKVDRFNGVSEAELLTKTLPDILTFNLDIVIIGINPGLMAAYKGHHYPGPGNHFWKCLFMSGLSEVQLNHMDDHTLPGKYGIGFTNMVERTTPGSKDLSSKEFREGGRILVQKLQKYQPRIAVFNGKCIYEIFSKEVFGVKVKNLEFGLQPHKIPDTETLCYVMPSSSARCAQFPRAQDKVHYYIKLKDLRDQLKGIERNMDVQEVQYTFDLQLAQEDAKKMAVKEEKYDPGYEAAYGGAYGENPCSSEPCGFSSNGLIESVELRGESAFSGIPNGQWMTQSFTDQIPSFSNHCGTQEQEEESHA
Conditions: Compound Concentration 10.0 uM, Hit Yes
Description: Inhibition of TDG by quantifying inhibition of TDG-mediated cleavage and dissociation of quenched duplex DNA oligonucleotides, measured as fluorescence at 594 nm. To generate a functional strand incision and increase turn-over this assay is coupled to APE1.
ENDPOINT: inhibition (%)
State just the number; it will be interpreted in %.

// query What inhibition value was documented for this compound, "CCCCCNC(=N)N/N=C/c1c[nH]c2ccc(OC)cc12" ?
// result 103

// query What inhibition value was documented for this compound, "O=S(=O)(Nc1nnc2cc(OCC34CC5CC(CC(C5)C3)C4)c(C3CC3)cn12)C1CC1" ?
// result 73.8

// query What inhibition value was documented for this compound, "COc1ccc(NC(=O)c2ccc(-c3ccc(-c4noc(C)n4)cc3C)cc2)cc1OCCN(C)C" ?
// result 101

// query What inhibition value was documented for this compound, "CN(C)CCN(Cc1ccc(-c2ccc(CNCCc3ccccc3)cc2)cc1)C(=O)CCC1CCCC1" ?
// result 80.3

// query What inhibition value was documented for this compound, "CCCCCCNC(=O)Nc1ccc(S(=O)(=O)Nc2ccc(CCNC[C@H](O)COc3ccc(O)cc3)cc2)cc1" ?
// result 105

// query What inhibition value was documented for this compound, "CN1CCN(c2ccc(Nc3c4ccccc4nc4ccccc34)cc2)CC1" ?
// result 73

// query What inhibition value was documented for this compound, "CCc1ccc(OCc2ccccc2C(=O)Nc2ccc3nc(C)cc(N)c3c2)cc1" ?
// result 82.5

// query What inhibition value was documented for this compound, "CC(C)(O)c1ccccc1CC[C@@H](SCC1(CC(=O)O)CC1)c1cccc(/C=C/c2ccc3ccc(Cl)cc3n2)c1" ?
// result 66.5

// query What inhibition value was documented for this compound, "O=C(NS(=O)(=O)N1CCC1)c1cc(C2CC2)c(OCC23CC4CC(CC(C4)C2)C3)cc1F" ?
// result 79.6

----------
What inhibition was measured for each of the following?
Target: DNA-3-methyladenine glycosylase (Homo sapiens) (UniProt P29372)
Sequence (P29372 whole entry): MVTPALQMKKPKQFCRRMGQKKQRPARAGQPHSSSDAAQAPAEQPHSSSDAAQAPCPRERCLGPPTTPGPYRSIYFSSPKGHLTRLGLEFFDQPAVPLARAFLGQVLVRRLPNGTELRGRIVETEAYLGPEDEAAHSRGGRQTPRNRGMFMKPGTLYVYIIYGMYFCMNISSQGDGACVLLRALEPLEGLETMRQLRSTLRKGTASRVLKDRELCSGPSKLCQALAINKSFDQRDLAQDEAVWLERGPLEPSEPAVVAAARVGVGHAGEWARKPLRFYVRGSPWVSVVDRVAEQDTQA
Conditions: Compound Concentration 10.0 uM, Hit No
Description: Inhibition of MPG by quantifying inhibition of MPG-mediated cleavage and dissociation of quenched duplex DNA oligonucleotides, measured as fluorescence at 594 nm. To generate a functional strand incision and increase turn-over this assay is coupled to APE1.
State just the number; it will be interpreted in %.

// query What inhibition value was documented for this compound, "CO[C@H]1CC=C2CCN3CCC4=C(CC(=O)OC4)[C@]23C1" ?
// result -7.01

// query What inhibition value was documented for this compound, "Cc1cc(Cn2nnc3c(-c4ccco4)nc(N)nc32)ccc1N" ?
// result -3.71

// query What inhibition value was documented for this compound, "O=C(O)COc1cccc(-c2ocnc2-c2nc(-c3ccccc3)c(-c3ccccc3)o2)c1" ?
// result 20.4

// query What inhibition value was documented for this compound, "Cc1ccc(O)c([C@H](CCN(C(C)C)C(C)C)c2ccccc2)c1" ?
// result -5.07

// query What inhibition value was documented for this compound, "CCNC(=O)[C@H]1O[C@@H](n2cnc3c(N)ncnc32)[C@H](O)[C@@H]1O" ?
// result -3.56

// query What inhibition value was documented for this compound, "COc1cc(C(=O)N(CCCc2ccccc2)Cc2ccc(CC(=O)O)cc2)cc(OC)c1C" ?
// result 2.65

// query What inhibition value was documented for this compound, "O=c1ccn([C@@H]2O[C@H](COP(=O)(O)OP(=O)(O)OP(=O)(O)OP(=O)(O)OC[C@H]3O[C@@H](n4ccc(=O)[nH]c4=O)[C@H](O)[C@@H]3O)[C@@H](O)[C@H]2O)c(=O)[nH]1" ?
// result 0.18

// query What inhibition value was documented for this compound, "N=C(N)NCCC[C@H](NC(=O)COCC(c1ccccc1)c1ccccc1)C(=O)O" ?
// result 6.97

// query What inhibition value was documented for this compound, "CCn1cnc2c(-c3ccc(F)c(-c4ccc(S(=O)(=O)CC)cc4OC)c3)cnnc21" ?
// result 7.34

// query What inhibition value was documented for this compound, "C[C@H](CO)Nc1nc(SCc2cccc(Cl)c2F)nc2[nH]c(=O)sc12" ?
// result 2.92

// query What inhibition value was documented for this compound, "N=C(N)NCCSC(=N)N" ?
// result -0.668

// query What inhibition value was documented for this compound, "CN1[C@@H](CC(=O)c2ccccc2)CCC[C@H]1C[C@H](O)c1ccccc1" ?
// result -4.83

// query What inhibition value was documented for this compound, "CCOc1nc2cccc(C(=O)O)c2n1Cc1ccc(-c2ccccc2-c2nnn[nH]2)cc1" ?
// result -3.68

// query What inhibition value was documented for this compound, "CCCN[C@H]1CCc2nc(N)sc2C1" ?
// result -0.406

// query What inhibition value was documented for this compound, "CC1(C)SSC(C)(C)[C@@H](NC(=O)[C@@H](N)Cc2ccc(O)cc2)C(=O)NCC(=O)N[C@@H](Cc2ccccc2)C(=O)N[C@H]1C(=O)O" ?
// result 7.58

// query What inhibition value was documented for this compound, "NC(N)=Nc1nc(CSCC/C(N)=N/S(N)(=O)=O)cs1" ?
// result 11.5

// query What inhibition value was documented for this compound, "COc1ccc(CNC(=O)c2cc(-c3cncc(Cl)c3)cnc2-c2ccccn2)nc1OC" ?
// result -0.668

// query What inhibition value was documented for this compound, "COCCOCCn1nc2c(c1C)-c1c(Cl)ccc3c1c(C)c(C(=O)O)n3CCCOc1cc(cc3c(F)c(Cl)ccc13)CCc1cc(nn1C)CSC2" ?
// result 52.2

// query What inhibition value was documented for this compound, "CC(C)c1cc(Br)c(NC(=O)Nc2cccnc2)c(Br)c1" ?
// result 14.7
